Measured OD 490/630 nm of individual entries
tgt: T1, Ala mutant of TA0096, SEQ ID NO: 35
T1 peptide: EENMDDQWAQDEMEIGY
assay_name: ELISA, coated peptide

{"binder": "A11 (antibody, V domains shown, Chicken variable regions in a mouse chimeric antibody (IgG1); also called anti-PAD4 antibody A11) VH: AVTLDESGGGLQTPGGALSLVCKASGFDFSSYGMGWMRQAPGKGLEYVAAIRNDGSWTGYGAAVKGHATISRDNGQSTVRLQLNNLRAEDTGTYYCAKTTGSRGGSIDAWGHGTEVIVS VL: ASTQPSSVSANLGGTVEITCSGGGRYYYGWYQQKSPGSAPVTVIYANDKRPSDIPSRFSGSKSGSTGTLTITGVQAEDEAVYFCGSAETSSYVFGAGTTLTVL", "OD 490/630 nm": 0.023}
{"binder": "G9 (antibody, V domains shown, Chicken variable regions in a mouse chimeric antibody (IgG1); also called anti-PAD4 antibody G9) VH: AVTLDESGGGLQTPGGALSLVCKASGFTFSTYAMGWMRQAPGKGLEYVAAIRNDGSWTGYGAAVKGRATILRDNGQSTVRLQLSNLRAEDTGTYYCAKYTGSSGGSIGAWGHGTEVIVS VL: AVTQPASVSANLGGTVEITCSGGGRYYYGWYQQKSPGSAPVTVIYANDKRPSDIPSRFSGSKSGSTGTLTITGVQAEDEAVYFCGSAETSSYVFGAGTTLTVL", "OD 490/630 nm": 0.253}
{"binder": "E9 (antibody, V domains shown, Chicken variable regions in a mouse chimeric antibody (IgG1); also called anti-PAD4 antibody E9) VH: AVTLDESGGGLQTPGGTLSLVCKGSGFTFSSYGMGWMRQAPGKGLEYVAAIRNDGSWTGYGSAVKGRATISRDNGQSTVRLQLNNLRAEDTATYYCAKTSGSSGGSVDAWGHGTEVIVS VL: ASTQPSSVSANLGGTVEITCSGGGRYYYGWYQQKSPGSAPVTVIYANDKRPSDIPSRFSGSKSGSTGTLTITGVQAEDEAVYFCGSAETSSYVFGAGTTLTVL", "OD 490/630 nm": 0.017}
